Target Entity: Mu-type opioid receptor (Cavia porcellus) (UniProt P97266)
Sequence (P97266 whole entry): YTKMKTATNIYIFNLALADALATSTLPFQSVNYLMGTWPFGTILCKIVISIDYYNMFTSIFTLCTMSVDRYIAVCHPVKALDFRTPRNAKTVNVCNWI
Method Summary: Mu opioid receptor agonist activity was determined by inhibition of electrically stimulated myenteric plexus in guinea pig ileum
Assay type: functional, tissue-based
Catalogue of Relative potency values
Recorded Metric: Relative potency

- Compound: "CSCC[C@H](NC(=O)[C@H](Cc1ccccc1)NC(=O)CNC(=O)[C@@H](C)NC(=O)[C@@H](N)Cc1ccc(O)cc1)C(N)=O"
  Recorded Metric: "Relative potency"
  Observed Measurement: 329
- Compound: "CSCC[C@@H](NC(=O)[C@H](Cc1ccccc1)NC(=O)CNC(=O)CNC(=O)C1CC2(C)c3cc(O)ccc3CC(C2C)N1C)C(N)=O (some centres undefined)"
  Recorded Metric: "Relative potency"
  Observed Measurement: 0.007
- Compound: "CC1C2Cc3ccc(O)cc3C1(C)CC(C(N)=O)N2C (single isomer, unassigned; (-))"
  Recorded Metric: "Relative potency"
  Observed Measurement: 0.009
- Compound: "CC1C2(C)CCN(C)C1(C(N)=O)Cc1ccc(O)cc12 (single isomer, unassigned; (-))"
  Recorded Metric: "Relative potency"
  Observed Measurement: 0.02
